Data origin, for the record: PubChem BioAssay (NCI)

Parameter: growth. Scope: all listed entries.
# Test system: CAKI-1 renal
# assayExplanation: NCI-60 one-dose screen, 48 h (100 = growth as untreated, 0 = no growth, -100 = all killed)
# assaySetup: 10 µM unless noted
The panel holds about 83,000 compounds, 20% with a hit somewhere; the sample as a whole holds those more often.
# output: bare number, implied unit %

The examples below pair each entry with its known result.
Cc1n(Cc2ccc3ccccc3c2)c(Cl)c(Cl)[n+]1Cc1ccc2ccccc2c1 | 29.2
COc1cc(NS(=O)(=O)C(C)C)cc(-c2cc(-c3ccc(N4CCNCC4)cc3)cnc2N)c1 | 87.1
CCCn1nc(C(=O)N2CCCCC2)c2c1CCC(N1CCC(c3ccncc3)CC1)C2 (stereo not given) | 95.8
CCOC(=O)CCCn1c(-c2ccccc2)cc(-c2ccccc2)c(C#N)c1=O | 57.3
O=C1/C(=C/c2ccc(-c3ccccc3C(F)(F)F)o2)SC(=S)N1CCc1ccc(O)cc1 | 33.8

Query string: Record "COc1cc(-c2nc(SCCC(C)C)nc(Nc3ccc(F)cc3)c2C#N)cc(OC)c1OC" : what is its growth with CAKI-1 renal?
Result string: 49.6

Query string: Record "N#CSc1c[nH]c2ccc(/C=C/C(=O)/C=C(/C=C/c3ccc4[nH]cc(SC#N)c4c3)OB(F)F)cc12" : what is its growth with CAKI-1 renal?
Result string: -71.5

Query string: Record "COC1=CC(=O)C(OC)=C(O)C1=O" : what is its growth with CAKI-1 renal?
Result string: 93.9

Query string: Record COc1ccc(/C=N/C2=C(C#N)C(c3ccccc3)c3c(ccc4ccccc34)O2)cc1 (stereo not given) : what is its growth with CAKI-1 renal?
Result string: 13.9

Query string: Record "CCN(CC)CCCN1C(=O)c2c(c(C)c3c(oc4cc(OC)ccc43)c2C)C1=O" : what is its growth with CAKI-1 renal?
Result string: 93.2

====

# System: NCI-H23 lung
# assayExplanation: NCI-60 one-dose screen, 48 h
# assaySetup: 10 µM unless noted
# Experimental: Growth inhibition of the NCI-H23 human Non-Small Cell Lung tumor cell line is measured as a screen for anti-cancer activity. Cells are grown in 96 well plates and exposed to the test compound for 48 hours. Compounds are tested at a single concentration, which is 10^-5 M for most compounds. The reported endpoint is percent growth (GI% or GIPRCNT), where numbers from 0 - 100% represent growth inhibition, and numbers from -100% - 0 represent cell death. […]
About 83,000 compounds went through this panel and 20% of them were active in at least one assay; those are over-represented in the sample as a whole. The source made the active and inactive calls. How the source made its calls: active means growth percent below 10; inactive means the rest.
Select the matching outcome among active, inactive

Consider the worked cases shown below.
COc1ccc(-c2ccc(-c3ccc(C(=N)N)cn3)s2)cc1Cl | active
Nc1ncc(-c2ccc3ncnc(N4CCc5ccc(Cl)cc54)c3c2)cc1C(F)(F)F | inactive
COc1ccc(-c2nn3c(-c4cc(F)c(Cl)cc4Cl)nnc3s2)cc1 | inactive
CC(=O)N1N=C(c2ccc(F)cc2)CC1c1sc(N(C)Cc2ccccc2)nc1Cl (stereo unspecified) | inactive

Query string: Outcome logged for Cc1nc2sc(C(=O)Nc3cccc(Cl)c3C)c(N)c2cc1C(O)c1ccccc1 (stereo unspecified) in this assay:
Result string: inactive

Query string: Outcome logged for "NC1=CC(=O)c2cccnc2C1=O" in this assay:
Result string: active

Query string: Outcome logged for "COc1ccc(/C=C/C(=O)c2cc3c(N)c(C(=O)Nc4ccccc4)sc3nc2C)cc1" in this assay:
Result string: inactive

Query string: Outcome logged for "Cc1c(C(=O)OCCCCOC(=O)c2c(C)n(C)c3scc[n+]23)[n+]2ccsc2n1C" in this assay:
Result string: inactive

Query string: Outcome logged for CCCN1C(=O)/C(=c2\sc3n(c2=O)C2C(NN=3)N(CC)C(=O)N2CC)c2ccccc21 (stereo unspecified) in this assay:
Result string: inactive

Query string: Outcome logged for CN(Cc1ccccc1)c1nc(Cl)c(C2CC(c3ccc4c(c3)OCO4)=NN2c2cc(Cl)cc(Cl)c2)s1 (stereo unspecified) in this assay:
Result string: inactive

Query string: Outcome logged for "CC(C)(C)c1cc(C(C)(C)c2ccccc2)cc(Cc2cc(C(C)(C)c3ccccc3)cc(C(C)(C)C)c2O)c1O" in this assay:
Result string: inactive

Query string: Outcome logged for "OB(O)c1ccsc1-c1nc2ccc3[nH]ncc3c2c2c1CCCC2" in this assay:
Result string: inactive

Query string: Outcome logged for "COc1cc(/C=N/NC(=O)CCN2c3ccccc3Sc3ccccc32)cc(OC)c1OC" in this assay:
Result string: inactive

====

# Tested on: MCF7 breast
# assayExplanation: NCI-60 one-dose screen, 48 h
# assaySetup: 10 µM unless noted
The panel holds about 83,000 compounds, 20% with a hit somewhere; the sample as a whole holds those more often. The source made the active and inactive calls. The calls were made as follows: active = growth percent below 10; inactive = the rest.
Select the matching outcome among YES = active, NO = inactive

Consider the worked cases shown below.
CCN1C(=O)N(c2ccccc2)C2NC(=S)N(/N=C/C=C/c3ccccc3)C21 (centres undefined) | YES
Clc1ccc2c(NCCN3CCN(c4ccnc(N5CCCC5)n4)CC3)ccnc2c1 | NO
[2H]C([2H])([2H])Oc1cc(F)ccc1/C=C/C(=O)/C=C(/C=C/c1ccc(F)cc1OC([2H])([2H])[2H])OB(F)F | NO

Query string: Outcome logged for "COc1ccc(-c2[nH]c3ccccc3c2-c2ccc(OC)cc2)cc1" in this assay:
Result string: NO

Query string: Outcome logged for "O=C(Nc1ccccc1C(=O)N/N=C(\c1ccccc1)c1ccccn1)c1ccccc1" in this assay:
Result string: YES

Query string: Outcome logged for COc1nc(=O)n(C2C=CC(=O)O2)cc1F (centres undefined) in this assay:
Result string: NO

Query string: Outcome logged for "COCCOc1cc2ncnc(N3CCN(S(=O)(=O)c4ccccc4Cl)CC3)c2cc1OCCOC" in this assay:
Result string: NO

Query string: Outcome logged for "C=C(C)[C@@H]1CC[C@]2(C)[C@H](CC(=O)N[C@H]3[C@@H]4C[C@](C)(C(=O)OC)CC[C@]4(C)CC[C@]32C)[C@@]1(C)CCC#N" in this assay:
Result string: NO

Query string: Outcome logged for "CCN(CC)CC#CCOC(=O)[C@]1(C)CCC[C@]2(C)c3ccc(C(C)C)cc3CC[C@@H]12" in this assay:
Result string: NO

====

# Test system: OVCAR-8 ovarian
# assayExplanation: NCI-60 one-dose screen, 48 h
# assaySetup: 10 µM unless noted
About 83,000 compounds went through this panel and 20% of them were active in at least one assay; those are over-represented in the sample as a whole. Activity calls are given as the source filed them. The calls were made as follows: active = growth percent below 10; inactive = the rest.
Select the matching outcome among class 1 for active, class 0 for inactive

Consider the worked cases shown below.
Cc1c(C(C)(C)O)cn2ncnc(Oc3ccc(NC(=O)Nc4ccc(Cl)c(C(F)(F)F)c4)cc3)c12 | class 0
Cc1ccc2c(c1)C(C)Cc1c(ncnc1-n1cnc3cc(C)ccc31)N2C (stereo not drawn) | class 1
COc1ccc2c(c1)c(C(=O)c1nc(-c3cn(C)c4ccccc34)no1)cn2C | class 0
N#C/C(=N\Nc1ccc(Cl)cc1)C(=O)Nc1cc(-c2ccccc2)nn1-c1ccccc1 | class 0

Query string: Outcome logged for "CN1CCN(c2ccc(Nc3ncc(C(N)=O)c(NCCCNC(=O)C4CCC4)n3)cc2)CC1" in this assay:
Result string: class 0

Query string: Outcome logged for O=C1N=c2ccccc2=C1c1sc(=S)n(C2CC(=O)N(c3ccc(Cl)cc3)C2=O)c1O (stereo not drawn) in this assay:
Result string: class 0

Query string: Outcome logged for "COc1cc(-c2nn(-c3cccc(NC(=O)CCN4CCN(C)CC4)c3)cc2-c2ccncc2)ccc1Cl" in this assay:
Result string: class 0

Query string: Outcome logged for "Cc1ccc(S(=O)(=O)OC[C@@]2(C)CC[C@]3(C)CC[C@]4(C)C(=C3C2)C=C[C@@H]2[C@@]3(C)CCCNC(C)(C)[C@@H]3CC[C@]24C)cc1" in this assay:
Result string: class 1

====

# Tested on: 786-0 renal
# assayExplanation: NCI-60 one-dose screen, 48 h
# assaySetup: 10 µM unless noted
# Protocol: Cells are grown in 96 well plates and exposed to the test compound for 48 hours. Compounds are tested at a single concentration, which is 10^-5 M for most compounds. The reported endpoint is percent growth (GI% or GIPRCNT), where numbers from 0 - 100% represent growth inhibition, and numbers from -100% - 0 represent cell death. For example, a value of 40 represents 60% growth inhibition. A value of 0 means no net growth occurred over the course of the experiment. […]
Compounds without any hit were thinned out: in the full panel of roughly 83,000, 20% have a hit. Calls of active or inactive are those of the source. How the source made its calls: active means growth percent below 10; inactive means the rest.
Select the matching outcome among class 1 = active, class 0 = inactive

COc1ccccc1/C=C1\COc2ccc(O)c(O)c2C1=O | class 1
COCCn1cc(-c2csc(-c3cn(C)c4ccc(F)cc34)n2)c2cccnc21 | class 0
C=C(CNCCO)[C@@H]1CC[C@]2(CO)CC[C@]3(C)[C@H](CC[C@@H]4[C@@]5(C)CCC(NCCc6ccc(O)cc6)C(C)(C)[C@@H]5CC[C@]43C)[C@@H]12 (stereo partly drawn) | class 1
Nc1n[nH]c2cccc(C#Cc3cccc(NC(=O)c4ccc(N5CCOCC5)c(C(F)(F)F)c4)c3)c12 | class 1
CCCCCCCCCCCCCCCC(=O)O[C@@H]1[C@@H](O)[C@@H](O)C([C@H](NC(=O)[C@@H]2C[C@@H](CCC)CN2C)[C@H](C)Cl)O[C@@H]1SC (stereo partly drawn) | class 0
Cc1ccc(S(=O)(=O)OC[C@@]2(C)CC[C@]3(C)CC[C@]4(C)C(=CC[C@@H]5[C@@]6(C)CCCNC(C)(C)[C@@H]6CC[C@]54C)[C@@H]3C2)cc1 | class 1
O=C(CN1C(=O)S/C(=C\C(Cl)=C\c2ccccc2)C1=O)NC1C=CS(=O)(=O)C1 (stereo not drawn) | class 1

Now turn to the next molecule.
Query string: Outcome logged for "COc1cc(NS(=O)(=O)C(C)C)cc(-c2cc(-c3ccc(N4CCNCC4)cc3)cnc2N)c1" in this assay:
Result string: class 0
